- target under test: T1, recombinant human activated Factor VII (FVIIa) (human, UniProt P08709 61-212; P08709 213-466, ten glutamate residues of the Gla domain may be gamma-carboxylated)
- T1 construct: chains tethered by a disulfide bond; also called Factor VIIa; rFVIIa
- T1 sequence 1: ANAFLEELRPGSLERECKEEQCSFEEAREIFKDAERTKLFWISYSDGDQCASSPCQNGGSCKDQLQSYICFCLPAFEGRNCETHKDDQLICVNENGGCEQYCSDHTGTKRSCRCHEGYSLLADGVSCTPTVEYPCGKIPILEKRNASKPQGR
- T1 sequence 2: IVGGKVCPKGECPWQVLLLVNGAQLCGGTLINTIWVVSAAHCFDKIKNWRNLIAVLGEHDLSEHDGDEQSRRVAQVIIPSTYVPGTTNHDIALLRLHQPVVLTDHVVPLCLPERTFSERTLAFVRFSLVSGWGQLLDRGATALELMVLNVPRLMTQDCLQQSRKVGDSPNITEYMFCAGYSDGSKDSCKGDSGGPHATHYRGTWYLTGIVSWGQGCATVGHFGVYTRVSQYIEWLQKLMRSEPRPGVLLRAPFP
- protocol: BLI (Fortebio)
Friendly reminder: Kd below 20 nM is Yes, at or above is No.

binder	cat
VH SEQ ID NO 626 / VL SEQ ID NO 502 (antibody, IgG4, V domains shown, humanized 11F2; IgG4 S228P/kappa) VH: QVQLQESGPGLVKPSQTLSLTCTVSGYSISSDSAWSWIRQPPGKGLEWIGYIQYSGSTNYNPSLKSRVTISRDTSKNQFSLKLSSVTAADTAVYYCARSVNYYGNSFAVGPWGQGTLVTVSS VL: EIVLTQSPATLSLSPGERATLSCRASQGVSDYLHWYQQKPGQAPRLLIKYTSQPATGIPARFSGSGSGTDFTLTISSLEPEDFAVYYCQNGHSFPLTFGQGTKLEIK	Yes
VH SEQ ID NO 554 / VL SEQ ID NO 342 (antibody, IgG4, V domains shown, humanized 11F2; IgG4 S228P/kappa) VH: QVQLQESGPGLVKPSDTLSLTCAVSGYSISSDSAWSWIRQFPGKGLEWIGYIQYSGSTNYNPSLKSRVTMSVDTSKNQFSLKLSSVTALDTAVYYCARSVNYYGNSFAVGPWGQGTLVTVSS VL: EIVLTQSPATLSLSPGERATLSCRASQGISDYLHWYQQKPGQAPRLLIKYTSQPATGIPARFSGSGSGRDFTLTISSLEPEDFAVYYCQNGHSFPLTFGAGTKLELK	No
VH SEQ ID NO 314 / VL SEQ ID NO 326 (antibody, IgG4, V domains shown, humanized 11F2; IgG4 S228P/kappa) VH: QVQLQESGPGLVEPSDTLSLTCAVSGYSISSDSAWSWIRQPPGKGLEWIGYIQYSGSTNYNPSLKSRVTMSVDTSKNQFSLKLSSVTALDTAVYYCARSVNYYGNSFAVGPWGQGTLVTVSS VL: EIVLTQSPATLSLSPGERATLSCRASQGISDYLHWYQQKPGEAPRLLIKYTSQPATGIPARFSGSGSGTDFTLTISSLEPEDFGVYYCQNGHSFPLTFGAGTKLELK	Yes
VH SEQ ID NO 586 / VL SEQ ID NO 318 (antibody, IgG4, V domains shown, humanized 11F2; IgG4 S228P/kappa) VH: QVQLQESGPGLVKPSDTLSLTCAVSGYSISSDSAWSWIRQPPGKGLEWIGYIQYSGSTNYNPSLKSRVTMSVDTSKNQFSLKLSSVTALDTAVYYCARSVNYYGNSFAVGYWGQGTLVTVSS VL: EIVLTQSPATLSLSPGERATLSCRASQGISDYLHWYQQKPGEAPRLLIKYTSQPATGIPARFSGSGSGTDFTLTISSLEPEDFAVYYCQNGHSFPLTFGQGTKLEIK	Yes

For the next question, use this binder.
(Q) Determine if VH SEQ ID NO 546 / VL SEQ ID NO 438 (antibody, IgG4, V domains shown, humanized 11F2; IgG4 S228P/kappa) VH: QVQLQESGPGLVEPSQTLSLTCTVSGYSITSDSAWSWIRQPPGKKLEWIGYIQYSGSTNYNPSLKSRVTISRDTSKNQFSLKLSSVTAADTAVYYCARSVNYYGNSFAVGYWGQGTSVTVSS VL: EIVLTQSPATLSLSPGERATLSCRASQGVSDYLAWYQQKPGQAPRLLIKYASQPATGIPARFSGSGSGTDFTLTISSLEPEDVAVYYCQNGHSFPLTFGQGTKLEIK shows Kd strictly lower than 20 nM.
(A) Yes
